Test system: SH-4 (Melanoma)
Assay: combination Emax (second highest fraction inhibited in the dose matrix, 72 h); higher = more inhibition; extreme values may be limits of the assay
# binning rule on combination Emax: Low (below 0.3), Medium (0.3 to below 0.6), High (0.6 or more)

COMPOUND: COc1nnc2ccc(N3CCC(c4ccc(OCCN5CCN(C)C(=O)[C@H]5C)cc4)CC3)nn12 [AZD5153] + C=CCn1c(=O)c2cnc(Nc3ccc(N4CCN(C)CC4)cc3)nc2n1-c1cccc(C(C)(C)O)n1 [AZD1775] (first compound max 1 µM, partner max 1 µM)
CATEGORY_LABEL: High
//
COMPOUND: CC1(C)CCC(CN2CCN(c3ccc(C(=O)NS(=O)(=O)c4ccc(NCC5CCOCC5)c([N+](=O)[O-])c4)c(Oc4cnc5[nH]ccc5c4)c3)CC2)=C(c2ccc(Cl)cc2)C1 [Venetoclax] + CS(=O)(=O)CCNCc1ccc(-c2ccc3ncnc(Nc4ccc(OCc5cccc(F)c5)c(Cl)c4)c3c2)o1 [Lapatinib] (first compound max 1 µM, 7x7, partner max 10 µM)
CATEGORY_LABEL: Low
//
COMPOUND: CN(CCO)CC[C@H](CSc1ccccc1)Nc1ccc(S(=O)(=O)NC(=O)c2ccc(N3CCC([C@@H](O)c4ccccc4-c4ccc(Cl)cc4)CC3)cc2)cc1S(=O)(=O)C(F)(F)F [AZD4320] + Nc1ccn([C@@H]2O[C@H](CO)[C@@H](O)C2(F)F)c(=O)n1 [Gemcitabine] (first compound max 1 µM, 7x7, partner max 0.3 µM)
CATEGORY_LABEL: High
//
COMPOUND: CC1(C)CCC(CN2CCN(c3ccc(C(=O)NS(=O)(=O)c4ccc(NCC5CCOCC5)c([N+](=O)[O-])c4)c(Oc4cnc5[nH]ccc5c4)c3)CC2)=C(c2ccc(Cl)cc2)C1 [Venetoclax] + COc1cc(Nc2ncc3c(n2)-c2ccc(Cl)cc2C(c2c(F)cccc2OC)=NC3)ccc1C(=O)O [Alisertib] (first compound max 1 µM, 7x7, partner max 10 µM)
CATEGORY_LABEL: Low
//
COMPOUND: NC1(C(=O)N[C@@H](CCO)c2ccc(Cl)cc2)CCN(c2ncnc3[nH]ccc23)CC1 [Capivasertib] + C[C@@H]1COCCN1C2=NC(=NC(=C2)C3(CC3)[S@](=N)(=O)C)C4=C5C=CNC5=NC=C4 [AZD6738] (first compound max 10 µM, 7x7, partner max 10 µM)
CATEGORY_LABEL: Medium
//
COMPOUND: Cc1c2c(nn1C)CSCc1cc(n(C)n1)CSc1cc(c3ccccc3c1)OCCCc1c(C(=O)O)n(C)c3c-2c(Cl)ccc13 [AZD5991] + CC(=O)O[C@H]1C(=O)[C@@]2(C)[C@H]([C@H](OC(=O)c3ccccc3)[C@]3(O)C[C@H](OC(=O)[C@H](O)[C@@H](NC(=O)c4ccccc4)c4ccccc4)C(C)=C1C3(C)C)[C@]1(OC(C)=O)CO[C@@H]1C[C@@H]2O [Paclitaxel] (first compound max 1 µM, 7x7, partner max 3 µM)
CATEGORY_LABEL: Medium
//
COMPOUND: N#Cc1cnc(Nc2cc(NC[C@H]3CNCCO3)c(C(F)(F)F)cn2)cn1 [SRA737] + C=CCn1c(=O)c2cnc(Nc3ccc(N4CCN(C)CC4)cc3)nc2n1-c1cccc(C(C)(C)O)n1 [AZD1775] (first compound max 10 µM, partner max 1 µM)
CATEGORY_LABEL: High
//
COMPOUND: CC(=O)c1c(C)c2cnc(Nc3ccc(N4CCNCC4)cn3)nc2n(C2CCCC2)c1=O [Palbociclib] + CC1(C)CCC(CN2CCN(c3ccc(C(=O)NS(=O)(=O)c4ccc(NCC5CCOCC5)c([N+](=O)[O-])c4)c(Oc4cnc5[nH]ccc5c4)c3)CC2)=C(c2ccc(Cl)cc2)C1 [Venetoclax] (first compound max 10 µM, 7x7, partner max 1 µM)
CATEGORY_LABEL: Low
